# pIC50 per record follows
Biological target: mTOR (Homo sapiens, UniProt P42345)
Sequence (P42345 1382-2549 limits assumed): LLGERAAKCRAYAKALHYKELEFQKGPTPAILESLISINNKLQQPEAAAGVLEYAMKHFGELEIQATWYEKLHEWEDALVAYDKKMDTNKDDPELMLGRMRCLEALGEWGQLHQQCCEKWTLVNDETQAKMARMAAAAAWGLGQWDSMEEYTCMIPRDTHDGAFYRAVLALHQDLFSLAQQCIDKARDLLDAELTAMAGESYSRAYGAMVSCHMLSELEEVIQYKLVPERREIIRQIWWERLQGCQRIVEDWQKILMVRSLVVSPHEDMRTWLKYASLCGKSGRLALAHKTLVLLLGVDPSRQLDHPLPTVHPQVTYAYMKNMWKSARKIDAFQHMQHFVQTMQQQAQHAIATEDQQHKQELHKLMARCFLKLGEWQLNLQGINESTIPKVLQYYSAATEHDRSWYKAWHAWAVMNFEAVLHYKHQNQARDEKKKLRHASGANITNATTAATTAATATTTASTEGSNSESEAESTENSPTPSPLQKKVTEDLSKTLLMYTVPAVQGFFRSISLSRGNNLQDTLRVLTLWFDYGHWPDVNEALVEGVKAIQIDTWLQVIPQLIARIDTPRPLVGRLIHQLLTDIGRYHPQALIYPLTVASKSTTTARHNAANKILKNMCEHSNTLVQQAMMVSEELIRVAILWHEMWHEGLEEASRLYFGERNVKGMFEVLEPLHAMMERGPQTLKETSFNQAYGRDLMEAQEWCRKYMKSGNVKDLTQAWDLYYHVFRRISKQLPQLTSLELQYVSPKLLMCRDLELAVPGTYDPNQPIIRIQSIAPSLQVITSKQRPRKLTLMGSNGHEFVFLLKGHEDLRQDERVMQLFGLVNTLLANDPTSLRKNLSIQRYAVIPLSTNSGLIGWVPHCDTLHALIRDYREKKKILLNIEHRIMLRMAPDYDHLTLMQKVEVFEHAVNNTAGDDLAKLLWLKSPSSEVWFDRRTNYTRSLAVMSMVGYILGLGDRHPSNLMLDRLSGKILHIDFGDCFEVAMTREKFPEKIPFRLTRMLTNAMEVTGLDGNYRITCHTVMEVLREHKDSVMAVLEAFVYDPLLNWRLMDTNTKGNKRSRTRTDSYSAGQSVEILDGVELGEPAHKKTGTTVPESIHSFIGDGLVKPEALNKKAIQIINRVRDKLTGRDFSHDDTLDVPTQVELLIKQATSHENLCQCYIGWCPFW
pIC50: −log10 of the molar value.

{"columns": ["Compound", "Reported"],
 "data": [
  ["CCC(C)n1c(-c2ccccc2)nc2c(-c3cccc(O)c3)nc(N3CCOCC3)nc21 (centres unmarked) [Compound 126]", "> 6.00"],
  ["N#CCn1cnc2c(-c3cccc(O)c3)nc(N3CCOCC3)nc21 [Compound 35]", "> 6.00"],
  ["CC(C)Cn1cnc2c(-c3cccc4[nH]ccc34)nc(N3CCOCC3)nc21 [Compound 66]", "> 6.00"],
  ["CCCCNc1nc2c(-c3cccc(O)c3)nc(N3CCOCC3)nc2n1C(C)CC (centres unmarked) [Compound 120]", "> 6.00"],
  ["CS(=O)(=O)N1CCN(CCn2cnc3c(-c4cccc(O)c4)nc(N4CCOCC4)nc32)CC1 [Compound 108]", "> 6.00"]
]}

Input line: Name the reported pIC50 value associated with the compound O=C(CCN1CCCCC1)Nc1ccc(Cn2cnc3c(-c4cccc(O)c4)nc(N4CCOCC4)nc32)cc1 [Compound 26]
Output line: 5.30 to 6.00

Input line: Repeat with CC(C)(C)CC(=O)N1CCC(n2cnc3c(-c4cccc5[nH]ccc45)nc(N4CCOCC4)nc32)CC1 [Compound 96]
Output line: > 6.00

Input line: Repeat with Oc1cccc(-c2nc(N3CCOCC3)nc3c2nc(-c2cccs2)n3C2CCCCO2)c1 (centres unmarked) [Compound 116]
Output line: < 5.30

Origin of values: patent US20110009403A1
